Test: Metabolic stability test, pooled human liver microsome
Type: in vitro ADME
Conditions: 2 μmol/L compound; human liver microsome 0.5 mg protein/mL, NADPH, 37° C.
MEASURED_QUANTITY: percentage of test compound remained after reacting for 30 minutes (%)

>>> endpoint_value("CC1(C)SC(N2CCOc3cccnc32)=NC1=O [Compound I-49]")
90.1
>>> endpoint_value("O=C(O)CNC(=O)Nc1cnc2c(c1)OCCN2C(=O)Nc1ccccc1 [Compound I-239]")
100
>>> endpoint_value("O=C(O)c1ccc(Nc2cnc3c(c2)OCCN3C(=O)Nc2ccccc2)cc1 [Compound I-139]")
83
>>> endpoint_value("O=C(O)c1ccccc1Nc1ccc2c(n1)N(C(=O)Nc1ccccc1)CCO2 [Compound I-145]")
88.4
>>> endpoint_value("O=C(O)c1ccc(Nc2ccc3c(n2)N(C(=O)Nc2ccccc2)CCO3)cc1 [Compound I-146]")
100
>>> endpoint_value("O=C(O)COc1cccc(Nc2ccc3c(n2)N(C(=O)Nc2ccccc2)CCO3)c1 [Compound I-240]")
89.9
